Biological target: T1, human p40-His (human, UniProt P29460 23-328)
T1 construct: Made by Akeso Biopharma; construct limits and tag not described; also called human IL-12/IL-23 p40 protein domain; human IL-12/IL-23 p40; not shown: His tag
T1 sequence (looked up): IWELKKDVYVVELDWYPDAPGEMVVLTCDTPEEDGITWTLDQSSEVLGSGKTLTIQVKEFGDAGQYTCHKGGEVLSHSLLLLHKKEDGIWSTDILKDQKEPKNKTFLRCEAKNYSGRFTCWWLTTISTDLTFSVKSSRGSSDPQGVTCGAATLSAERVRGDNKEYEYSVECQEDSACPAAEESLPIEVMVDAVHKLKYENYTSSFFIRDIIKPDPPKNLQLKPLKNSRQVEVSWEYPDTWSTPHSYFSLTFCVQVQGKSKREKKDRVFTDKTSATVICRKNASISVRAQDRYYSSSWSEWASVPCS
Test: BLI (Fortebio), p40-His on HIS1K sensor, antibody 5-0.31 nM, 37 °C, 1:1 fit
Quantity Measured: koff (s⁻¹)
Return type: number; implicit unit s⁻¹.

Incoming: koff for H8L15 (antibody, human IgG1, kappa, V domains shown, human IgG1 (P01857) / kappa (P01834) constant regions; also called anti-human IL-12/IL-23 p40 antibody H8L15; H8L15H1L1) VH: EVQLVQSGAEVKKPGESLKISCQSSGYTFTSYWIGWVRQMPGQGLEWIGIMSPVDSDIRYNPMFRGQVTMSVDKSSSTAYLQWSSLKASDTAMYYCARRRPGQGYFDFWGQGTMVTVSS VL: EIVLTQSPATLSASPGERATISCRASQSVGTWVAWYQQKPGQAPRSLIYAASNLQSGIPARFSGSGSGTDFTLTISSLEPEDFAVYYCQQYNIYPYTFGQGTRLEIKR ?
Outgoing: 0.00018
